molecular target: Adrenergic receptor beta (Homo sapiens) (UniProt P08588+P07550+P13945); conditions: Cavia porcellus
Description: Compound was tested for beta adrenergic receptor activity in isolated guinea pig tracheal strip

compound	pD2
NC1CCc2c(ccc(O)c2O)[C@H]1O (stereo not given in full)	7.49
CC(C)N[C@@H]1CCc2c(ccc(O)c2O)[C@H]1O	8.41
NC[C@H](O)c1ccc(O)c(O)c1	6.04
CC(C)N1CCCC(O)(c2ccc(O)c(O)c2)C1 (stereo not given)	8.26
CC(C)N1CCOC(c2ccc(O)c(O)c2)C1 (stereo not given)	6.34

* * *

Readings of pD2 for the listed compounds
molecular target: Adrenergic receptor beta (Homo sapiens) (UniProt P08588+P07550+P13945); conditions: Cavia porcellus
Description: Compound was tested for beta adrenergic receptor activity in isolated guinea pig atria

compound	pD2
CC(C)N1CCCC(O)(c2ccc(O)c(O)c2)C1 (centres undefined)	8.14
NC1CCc2c(ccc(O)c2O)[C@H]1O (some centres undefined)	6.74
CC(C)N[C@@H]1CCc2c(ccc(O)c2O)[C@H]1O	7.56
CC(C)N1CCOC(c2ccc(O)c(O)c2)C1 (centres undefined)	5.74
